Test system: MS2 coat protein
Assay: apparent KD of MS2 coat protein; designed switch direction (-1 OFF switch, 1 ON switch): -1; higher = weaker reporter binding
Conditions: input ligand: FMN 200 uM
Would you mind labelling by apparent KD of MS2 coat protein? At or over 30 nM is 1, under is 0.

| monomer_sequence | assay_system | category |
| --- | --- | --- |
| AACCUAAUGCGAGGAUAUACUGAGACGUACAGUCGUCAGACAUGAGGAUCACCCAUGUACGCCUCGUAGAAGGCGCGUGACUAA [Bearareus] (Eterna round: R96, puzzle: Exclusion NG 2) | MS2 coat protein | 1 |
| UAGAUACAUGAGGAUCACCCAUGUGAGGAUAUGAGAAUUAGUUUAAAUGAAUUAAUUUUCAGAAGGCACGGAGG [JR_Ex1_Sub053] (Eterna round: R97, puzzle: Exclusion 1) | MS2 coat protein | 1 |
| UUGAUGUGAGGAUAUAUUUAGUGUUUUCUUUAUGUUUUAUAACUUGAGGAUCACCCAAGUAGAAGGCGCUACGU [JR_Ex2_Sub066] (Eterna round: R97, puzzle: Exclusion 2) | MS2 coat protein | 0 |
| GUACGUAGAGGAUAUGGUUAUGAUGACAUGAGGAUCACCCAUGUUAGAGUGGGUAGAUUUCCAGAAGGCUGUGAAC [Eternabot (L1) Solution 98] (Eterna round: R97, puzzle: Exclusion 5) | MS2 coat protein | 1 |
| AAAACGUCAGGAUAUCCAAUAUAUGACAUGAGGAUCACCCAUGUUUCCACUCGUACCUCCGGAGAAGGGACUUAUA [Ex5 #83] (Eterna round: R97, puzzle: Exclusion 5) | MS2 coat protein | 1 |

---

Tested on: MS2 coat protein
Experiment: apparent KD of MS2 coat protein; higher = weaker reporter binding
Settings: Eterna round: R107; input ligand: none
Use 30 nM as the dividing line for apparent KD of MS2 coat protein, with the line itself on the True side and lower values as False.

| monomer_sequence | category |
| --- | --- |
| CCCAGUCAUAACAAAGCAAAUAUACUCGAAGGAGCGUCAUAGUAGGCAGGUAGGUCGCGAGACAUGAGGAUCACCCAUGUAGAGA [zrzmullin] | True |
| ACAUGAGGAUCACCCAUGUAAUACCGGGAAGGAGCGCGUAAGGACGCAGGUAGGUCGCUCGGCGUCCGGCCGCAAGGCCGGACGA [#1 Same State - Arginine A Attempt #12 (HarryS)] | False |
| GCUGCCAUACGAAGGAGCGCUGUUGCAAUGAGGCGAACAUGAGGAUCACCCAUGUGGCAGCAGCAGGUAGGUCGCGUAUGGCAGC [EAB #12] | True |
| ACAUUUAACUGAAGGAGCGUGAAUAACAUGAGGAUCACCCAUGUAACUUAGAUGCUUAUUUCACAGGUAGGUCGCAGACUAAUGA [JR_ExcArginiB_Sub010] | False |
| AACAACAAGGGAAGGAGCGCGAAUAAUAAACAUGAGGAUCACCCAUGUAUCAUGGGCUUAACGCAGGUAGGUCGCCCACAAACAA [Exclusion Arginine B GF1] | True |
| ACAUGAGGAUCACCCAUGUAUGACUAUCCUCGAGGACCGGUACGGCCGCCACUCGAACGAGUGGCUCGCGAGUGCGCACUCGCGA [5' end] | False |
| GCACAAGAUGGAAGGAGCGCUGGUAUAAGUCACAUGAGGAUCACCCAUGUGCUCCUUGCCGAGCAGGUAGGUCGCCAUCUUGUGC [SSAB NP+V+V2 #5] | True |
| UAGUUGCUGACGGCCGCCACUAGAACAUGAGGAUCACCCAUGUAUUCUAGUGGACAUGGGUGGACUAGGACCGGGUCAGCAACAU [(Trp1)-(Ms2)-(T)'-(M)'-(Trp2)_Design9] | False |
| AAUUCCUAACAUGAGGAUCACCCAUGUGAAGGAGCGCCGAAUAAGGCAGGUAGGUCGCACAUGGAACCGCUACGAAAGUAGCAAA | False |
| CCCAGUUAUAUCAAAGGAAUUAUACUCGAAGGAGCGUCAUAGUAGGCAGGUAGGUCGCGAGACAUGAGGAUCACCCAUGUAGAGA [pxpmullin] | True |
| CGGCCCUCACCUGAGGAUCACCCAGGUGAUACCAGCCUGGAAACAGGCCCUUGGCAGCACCAGGUCAUCAAAGAUGACCAAGCCG [TheoAX 23 #SwitchBubble] | False |
| GCAUCCUAGUCGGCCGCCACUGCAUGUUGGCAGUGCUGCAACAUACAUGAGGAUCACCCAUGUUGCAGGACCGGGACUAGGAUGC [(Trp1)-(MT2)''-(T1)'-(MT2)'-(Ms2)-(Trp2)_Design1] | False |
| UGUGUCGUCUGAAGGAGCGGCUCUUGAUCCUCGUGAGACAUGAGGAUCACCCAUGUCUCGAGCCAGGUAGGUCGCAGGCGGCACA [#26 Exclusion - Arginine B] | False |
| UCGGGCAGAGCGGCCGCCACUGUAUGGCAUGCGGAUGAAGGAACAUGAGGAUCACCCAUGUAGAUUAGGACCGGGCUUGCGGAGA [p''pmullin] | False |
| GAUUACAUGAGGAUCACCCAUGUAACUGAAGGAGCGGUGAUAAAGCCAGGUAGGUCGCAGAACGACAUGUGGUUCAUCCAUGUAA [#16 Exclusion - Arginine A] | True |
| CUUAUAUAUAGAAGGAGCGACAUGAGGAUCACCCAUGUCUACCACGUCGAAAGACGCUCAUGUCAGGUAGGUCGCUAUAUAUAAG [Astros-Eli-mod3] | True |
| UGAUAUAGGGAGCCGUAUCAGAAACCUGAAGGAGCGCCGGAAAAGGCAGGUAGGUCGCGGGAACAUGAGGAUCACCCAUGUAUUC [dancer_small] | False |
| CAAAAUUACGGAAGGAGCGCGGGUAGGCGGGUUGGAUCACAUGAGGAUCACCCAUGUAAAUCGCAGGUAGGUCGCCGUAAACGCG [Eslagele] | False |
| AAAAUAAAAGGUGCAAAAUCCUAAUGUGAAGGAGCGCACGAAAGUGCAGGUAGGUCGCACAUGAGGAUCACCCAUGUAGCACCAA [ArgEX 4 #SwitchBubble] | True |
| CGCAACCAACAUGAGGAUCACCCAUGUGAAGGAGCGCCGAAGAAGGCAGGUAGGUCGCACAUGAAUAAAUCAUGUAAAAGGUUGC [MAT - Exclusion Arginine A - Mod of Eli - D19] | True |
| GCAUGUUGGUGGUUUCUGCGAAGGCGGAAUCGAGGACCGGUACGGCCGCCACUCGGCGACAUGAGGAUCACCCAUGUGGUUAGGA [Exclusion - Tryptophan A (Freestyle 9)] | True |
| AUAUUAAUCGGAAGGAGCGGUACAUGAGGAUCACCCAUGUGGUAAGCUAGCAGAUCCCGUUACCAGGUAGGUCGCCGAGUUAUGA [XArg-B17] | True |

---

System: MS2 coat protein
Test: apparent KD of MS2 coat protein, switch ON state; designed switch direction (-1 OFF switch, 1 ON switch): -1; higher = weaker reporter binding
Settings: FMN input: 0 or 200 uM; Eterna round: R93 (includes R88 designs)
Recorded apparent KD of MS2 coat protein by entry

| monomer_sequence | apparent KD of MS2 coat protein (nM) |
| --- | --- |
| AAAUGACAUGAGGAUCACCCAUGUCAGGAUAUGACUUGAAAAAUAAAAUAAAAACAUGUCAGAAGGGACAUGAA [Design 47: Sub-opt E] | 16.5 |
| AGGAAACAUGAGGAUCACCCAUGUGAGGAUAUCAGAAAGAAAAGAAAAGAAAGAAGAAUGAGAAGGCACAAGAA [Hotepsekhemwy] | 26 |
| ACGACUAGAGGAUAUACAUGAGGAUCACCCAUGUAACUGUCAGAAAACUGACGGAGAUGUAGAAGGCUAGUCGA [Mat - Exclusion 3 - Neo mod - D80] | 16.7 |
| AAAAAGGGAGGAUAUACAUGAGGAUCACCCAUGUAAAACAAAAAAACAAAAAAAAAAAGUAGAAGGCCCAAAAA [Default title] | 30 |
| AACAUGUCAGGAUAUGUGGAAAGAAUAAAAGAAAUAAGAACACAGAAGGGACAUGAGGAUCACCCAUGUCAACA [May 31] | 27.7 |
| AACAGGACAGGAUAUACAUGAGGAUCACCCAUGUGAGAAUUCAGUAGAUUGCCACAGAGUAGAAGGGUCCUGGA [Ruby 100] | 58.5 |
| AGUUGGCGAGGAUAUACAUGAGGAUCACCCAUGUGAGAAAAAAAAGUGAGAAAGAAAAGUAGAAGGCGCUGACA [Mat - Exclusion 3 - Lego mod - D88] | 54.6 |
| AACAGUACAGGAUAUACAUGAGGAUCACCCAUGUGAAAAUUAAGUGGAAAACCACAAUGUAGAAGGGUACUGGA [Mat - Exclusion 3 - Eli mod - D49] | 46.1 |
| AAAAAUGGAGGAUAUACAUGAGGAUCACCCAUGUGAAACAAAACAAAAAACAAAAAAAGUAGAAGGCCAAAAAA [Gilly Gone Silly 3 - Jieux - Exclusion 3] | 31.2 |
| UCCUGACAUGAGGAUCACCCAUGUCAGGAUAUCUACAGAACCUCAUGUAAAAAACUGUAGAGAAGGGAUAUGGG [Design 98: Pseudoknot H] | 16.9 |
| AACAUGUAAGGAUAUGCUGCUCGUCACAAAAGUGAUGAGUAGCAGAAGGUACAUGAGGAUCACCCAUGUAAAGA [JL eternac mod 14] | 50.6 |
| GUGUACAGAGGAUAUAUAUGAGCAUGGAAACAUGCAUCCUCACAUGAGGAUCACCCAUGUAGAAGGCUGUACAC [Ex2: 704] | 624 |
| CCCUAGUCAGGAUAUACAAACAUGUCAAAAGACGUGAAAAAACAUGAGGAUCACCCAUGUAGAAGGGACUAGGG [Mat - Exclusion 2 - JL mod - D19] | 15.3 |
| AACUGACAUGAGGAUCACCCAUGUCAGGAUAUGCAUCUUAGGAAAAAAAAACUAAGAUGCAGAAGGGACAUGGA [Design 4: Super Stable 4] | 23.9 |
| AAGAAGUCAGGAUAUGCUUGUCGUCACAAAAGUGAUGACGAGCAGAAGGGACAUGAGGAUCACCCAUGUAAAGA [JL eternac mod 1] | 42.1 |
